biological target: T1, recombinant MS4A4A soluble polypeptide JS5; experiment: ELISA, 0.11 ug/ml antibody
T1 construct: also called JS5.His
RECORDED METRIC: ELISA OD
Output: the number by itself.

BINDER	ELISA OD
anti-MS4A4A antibody 4A-312 (antibody, V domains shown, full human IgG) VH: QVQLVQSGAEVKKPGASVKVSCKASGYTFTNYWMQWVRQAPGQGLEWMGATHPGHGDTRYAQKFQGRVTMTRDTSTSTVYMELSSLRSEDTAVYYCAREEVDYGFRSYWYFDVWGRGTLVTVSS VL: EIVLTQSPATLSLSPGERATLSCRASESVDNYGVSFMNWYQQKPGQAPRLLIYGASNQQSGIPARFSGSGSGTDFTLTISSLEPEDFAVYYCQQSKEVPPTFGGGTKVEIK	0.097
anti-MS4A4A antibody 4A-356 (antibody, V domains shown, full human IgG) VH: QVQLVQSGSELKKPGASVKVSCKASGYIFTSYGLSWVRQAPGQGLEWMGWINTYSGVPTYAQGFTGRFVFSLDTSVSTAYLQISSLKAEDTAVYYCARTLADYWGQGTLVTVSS VL: DVVMTQSPLSLPVTLGQPASISCKSSRSLLYSQGKTYLSWFQQRPGQSPRRLIYLVSKLDSGVPDRFSGSGSGTDFTLKISRVEAEDVGVYYCWQGIDFHQTFGGGTKVEIK	0.746

Next, consider the following binder.
## Input Can you look up the measured ELISA OD of anti-MS4A4A antibody 4A-379 (antibody, V domains shown) VH: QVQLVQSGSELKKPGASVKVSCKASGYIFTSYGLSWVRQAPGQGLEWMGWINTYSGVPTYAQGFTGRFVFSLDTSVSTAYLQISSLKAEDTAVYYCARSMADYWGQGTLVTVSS VL: DVVMTQSPLSLPVTLGQPASISCKSSRSLLYSAGKTYLSWFQQRPGQSPRRLIYLVSKLDSGVPDRFSGSGSGTDFTLKISRVEAEDVGVYYCWQGIDFHQTFGGGTKVEIK for me?
## Output 0.543
